# Test system: RSV Long strain
# test summary: Viral cytopathic effect (CPE) assay, anti-RSV activity
# Type: cell-based, Respiratory Syncytial Virus
# condition parameters: human respiratory syncytial virus, 144 h, RSV Long strain (ATCC); cell viability after 6 days, Cell Counting kit-8
reported endpoint: EC50 (µM)
The figure you give is taken to be in µM; do not add the unit.

For the compound Cc1ccc2nc(N3CCS(=O)(=O)c4ccccc4C3)cc(NC[C@H](O)CO)c2c1 [Example 3-10] , report EC50.
0.053

For the compound Cc1ccc2nc(N3CCS(=O)(=O)c4ccccc4C3)cc(NCC3(CN)CS(=O)(=O)C3)c2c1 [Example 6-2] , report EC50.
0.908

For the compound Cc1ccc2nc(N3CCC(F)(F)c4ccccc4C3)cc(NCC3(CN)CS(=O)(=O)C3)c2c1 [Example 112-1] , report EC50.
3.74

For the compound Cc1ccc2nc(N3CCNc4ccccc4C3)cc(NCCN)c2c1 [Example 133-2] , report EC50.
0.186

For the compound NCCCNc1cc(N2CCS(=O)(=O)c3ccccc3C2)nc2c(Cl)cccc12 [Example 9-12] , report EC50.
2.66

For the compound Cc1ccc2nc(N3CCS(=O)(=O)c4ccccc4C3)cc(N3CC(N)C3)c2c1 [Example 26-2] , report EC50.
0.179

For the compound COCCNc1cc(N2CCS(=O)(=O)c3ccccc3C2)nc2ccc(C)cc12 [Example 9-26] , report EC50.
7.2

For the compound Cc1cccc2c(NCCCN)cc(N3CCS(=O)(=O)c4ccccc4C3)nc12 [Example 17-5] , report EC50.
1.5

For the compound Cc1ccc2nc(N3CCS(=O)(=O)c4ccccc4C3)cc(NC(=O)C3CCCCN3)c2c1 (centres unmarked) [Example 47-5] , report EC50.
0.835

For the compound Cc1ccc2c(NCCCN)cc(N3CCS(=O)(=O)c4ccccc4C3)nc2c1 [Example 17-7] , report EC50.
0.642

For the compound Cc1ccc2nc(N3CCS(=O)(=O)c4ccccc4C3)cc(NCC3(CN)COC3)c2c1 [Example 3-50] , report EC50.
0.0004

For the compound N[C@@H]1CN(c2cc(N3CCS(=O)(=O)c4ccccc4C3)nc3ccc(Cl)cc23)C[C@H]1O (relative stereo) [Example 19-6] , report EC50.
0.054

For the compound Cc1ccc2nc(N3CCS(=O)(=O)c4ccccc4C3)cc(NCC(C)O)c2c1 (centres unmarked) [Example 5-7] , report EC50.
0.941

For the compound NCCCNc1cc(N2CCS(=O)(=O)c3ccccc3C2)nc2ccc(Oc3ccccn3)cc12 [Example 31] , report EC50.
0.702

For the compound Cc1ccc2nc(N3CCS(=O)(=O)c4ccccc4C3)cc(Nc3ccon3)c2c1 [Example 3-64] , report EC50.
0.874

For the compound Cc1ccc2nc(N3CCC(F)(F)c4ccccc4C3)cc(N[C@H]3CC[C@@H](N)CC3)c2c1 [Example 110-9] , report EC50.
1.37

For the compound CC(C)(N)CNc1cc(N2CCS(=O)(=O)c3ccccc3C2)nc2ccc(Cl)cc12 [Example 3-26] , report EC50.
0.876

For the compound Cc1ccc2nc(N3CCS(=O)(=O)c4ccccc4C3)cc(N3CCC(C)(O)C3)c2c1 (centres unmarked) [Example 3-45] , report EC50.
5.23

For the compound Cc1ccc2nc(N3CC[S+]([O-])c4ccccc4C3)cc(NCC3(CN)COC3)c2c1 (centres unmarked) [Example 18-8] , report EC50.
0.0007

For the compound Cc1ccc2nc(N3CCS(=O)(=O)c4ccccc4C3)cc(NCC(F)(F)CN)c2c1 [Example 3-19] , report EC50.
0.009
